Data provenance: patent US7071226B1

Tested on: multidrug resistant strain of Plasmodium yoelii Nigeriensis
measurement description: Antimalarial activity against multidrug resistant P. yoelii in Swiss mice (4-day treatment, observed till day 28)
Assay type: in vivo
run parameters: Plasmodium yoelii, po, 672 h, Swiss mice, 48 mg/kg/day, oral, day 0-3; read-out: Mice alive on day-28 (converted)
measured parameter: responders at 48 mg/kg/day (%)

>  <compound>
C=C(c1ccc(OC)cc1)C1COC2(CCC(Nc3cccc(C(F)(F)F)c3)CC2)OO1 (stereo not shown)

>  <recorded result>
100

$$$$
>  <compound>
C=C(c1ccc(Cl)cc1)C1COC2(CCC(Nc3cccc(C(F)(F)F)c3)CC2)OO1 (stereo not shown)

>  <recorded result>
100

$$$$
>  <compound>
C=C(c1ccccc1)C1COC2(CCC(Nc3cccc(C(F)(F)F)c3)CC2)OO1 (stereo not shown)

>  <recorded result>
100

$$$$
>  <compound>
C=C(c1ccc(OC)cc1)C1COC2(CCC(Nc3ccc(Cl)cc3)CC2)OO1 (stereo not shown)

>  <recorded result>
100

$$$$
>  <compound>
C=C(c1ccc(Cl)cc1)C1COC2(CCC(Nc3ccccc3-c3ccccc3)CC2)OO1 (stereo not shown)

>  <recorded result>
100

$$$$
>  <compound>
C=C(c1ccc(Cl)cc1)C1COC2(CCC(Nc3ccc(C)cc3)CC2)OO1 (stereo not shown)

>  <recorded result>
100

$$$$
>  <compound>
C=C(c1ccccc1)C1COC2(CCC(Nc3ccc(-c4ccccc4)cc3)CC2)OO1 (stereo not shown)

>  <recorded result>
100

$$$$
>  <compound>
C=C(c1ccc(C)cc1)C1COC2(CCC(Nc3ccc(-c4ccccc4)cc3)CC2)OO1 (stereo not shown)

>  <recorded result>
40

$$$$
>  <compound>
C=C(c1ccc(OC)cc1)C1COC2(CCC(Nc3cccc4ccccc34)CC2)OO1 (stereo not shown)

>  <recorded result>
40

$$$$
>  <compound>
C=C(c1ccccc1)C1COC2(CCC(Nc3ccc(Cl)cc3)CC2)OO1 (stereo not shown)

>  <recorded result>
60

$$$$
